target: HLA-A*30:01; test: IEDB peptide-MHC binding, purified MHC/direct/fluorescence; filed as Kd, often an IC50 or EC50 that approximates it; bounds were set here for any values at or beyond the usual limits of such assays; settings: source organism: Sapporo rat virus
testReadout: pKd
For clarity, pKd is expressed as the negative log10 of concentration in mol/L.

**Q:** Supply recorded pKd for `RLNLKTSFH` here.
**A:** 7.00

* * *

target: HLA-A*02:03; assay: IEDB peptide-MHC binding, purified MHC/direct/fluorescence; filed as Kd, often an IC50 or EC50 that approximates it; bounds were set here for any values at or beyond the usual limits of such assays; settings: source organism: Rickettsia bellii OSU 85-389
pKd: −log10 of the molar value.
testReadout: pKd

**Q:** Give reported pKd value for `EDFEIFYNL`
**A:** ≤ 4.70
